PROCEDURE SUMMARY: Selectivity index, ratio of toxicity against human Huh7ET cells assessed as reduction in beta-actin RNA levels at 20 uM to antiviral activity against HCV infected in human Huh7ET cells assessed as reduction in HCV RNA-derived luciferase activity at 20 uM by luciferase reporter gene assay
Format: cell-based, Huh-7
TEST CONTEXT: read-out: Selectivity Index
RESULT TYPE: selectivity ratio at 20 µM

// worked examples, selectivity ratio at 20 µM included
COMPOUND	RESULT TYPE	RESULT
COC(=O)[C@]1(C)CCC[C@]2(C)[C@H]3C[C@H]4C(=C(C)C)C5O[C@@]6(O)CCC(=O)[C@H]4[C@@H]6[C@@]53CC[C@H]21	selectivity ratio at 20 µM	> 1
CC(C)C1=C[C@@]23CC[C@@H]4[C@](C)(CCC[C@@]4(C)C(=O)O)[C@H]2C[C@@H]1[C@H]1C(=O)CCC(=O)[C@H]13	selectivity ratio at 20 µM	< 1

// recorded selectivity ratio at 20 µM for COC(=O)[C@]1(C)CCC[C@]2(C)[C@H]3C[C@H]4C(C(C)C)=C[C@]3(CC[C@H]21)[C@@H]1/C(=N/O)CCC2(OCCO2)[C@@H]14 : < 1

In plain terms, COC(=O)[C@H]1[C@@H](C(=O)OC)C2(C(=O)OC)CC[C@@H]3[C@](C)(CCC[C@@]3(C)C(=O)OC)[C@H]2C[C@H]1C(=O)C(C)C (some centres undefined) has a documented selectivity ratio at 20 µM of < 1
